# Tested on: HEL cells (human acute myelocytic leukemia cell lines)
# EXPERIMENTAL PROTOCOL: Cell-growth inhibition test: HEL cells
# Format: cell-based
# CONDITION INFO: Homo sapiens, HEL, read-out: IC50 (nM), Cell-Growth Inhibition Test: HEL Cells
MEASUREMENT NAME: IC50 (nM)

MOLECULE	TGT	MEASURED NUMBER
CN(C)c1ccc(-c2ccc(C(=O)N3CC[C@H](N)C3)cc2-c2ccc(C#N)c(F)c2)cn1 [Example 100]	HEL cells (human acute myelocytic leukemia cell lines)	12.8
CC(C)(O)Cn1ccc2cc(-c3ccc(C(=O)N4CC5CNCC5C4)cc3-c3ccc(C#N)c(F)c3)c(F)c(F)c21 (stereo not drawn) [Example 203]	HEL cells (human acute myelocytic leukemia cell lines)	2.45
Cc1ccc(-c2ccc(C(=O)N3CCC4(CNC4)C3)cc2-c2ccc(C#N)cc2)cc1 [Example 5]	HEL cells (human acute myelocytic leukemia cell lines)	34.8
N#Cc1ccc(-c2cc(C(=O)N3CC[C@H](N)C3)ccc2-c2ccc(CC3(O)CC3)cc2)cc1 [Example 59]	HEL cells (human acute myelocytic leukemia cell lines)	32
CN1CCc2cc(-c3ccc(C(=O)N4CC[C@H](N)C4)cc3-c3ccc(C#N)c(F)c3)ccc21 [Example 117]	HEL cells (human acute myelocytic leukemia cell lines)	5.54
COCCc1ccc(-c2ccc(C(=O)N3CCCC(N)CC3)cc2-c2ccc(C#N)c(F)c2)c(F)c1 (stereo not drawn) [Example 165]	HEL cells (human acute myelocytic leukemia cell lines)	0.62
COCCc1ccc(-c2ccc(C(=S)N3CC[C@H](N)C3)cc2-c2ccc(C#N)c(F)c2)c(F)c1 [Example 94]	HEL cells (human acute myelocytic leukemia cell lines)	29.4
N#Cc1ccc(-c2cc(C(=O)N3CC[C@H](N)C3)ccc2-c2ccc(C3(C4(O)CC4)CC3)cc2)cc1 [Example 68]	HEL cells (human acute myelocytic leukemia cell lines)	23.9
CC(C)(O)Cn1ccc2cc(-c3ccc(C(=O)N4[C@H]5CC[C@@H]4[C@H](N)C5)cc3-c3ccc(C#N)c(F)c3)c(F)cc21 (single isomer, unassigned; isomer-b) [Example 171]	HEL cells (human acute myelocytic leukemia cell lines)	0.08
